system: Kappa-type opioid receptor (Cavia porcellus, UniProt P41144)
Sequence (P41144 whole entry): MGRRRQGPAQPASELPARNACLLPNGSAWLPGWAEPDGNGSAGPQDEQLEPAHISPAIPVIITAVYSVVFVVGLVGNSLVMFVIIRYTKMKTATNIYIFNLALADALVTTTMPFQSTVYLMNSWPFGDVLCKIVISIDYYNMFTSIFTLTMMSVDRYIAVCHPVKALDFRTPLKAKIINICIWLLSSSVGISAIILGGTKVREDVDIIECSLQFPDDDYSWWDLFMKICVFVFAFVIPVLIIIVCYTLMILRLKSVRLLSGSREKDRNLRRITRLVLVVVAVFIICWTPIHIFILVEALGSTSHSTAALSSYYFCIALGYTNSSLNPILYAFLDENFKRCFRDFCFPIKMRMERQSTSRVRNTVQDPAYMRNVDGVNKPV
method summary: Inhibition of [3H]U-69593 binding to Opioid receptor kappa 1 of plasma membrane homogenates of guinea pig brain
pIC50: −log10 of the molar value.
Recorded pIC50 values for a group of compounds are listed next.
measured parameter: pIC50

INSERT INTO assay_data (substance_smiles, measured_parameter, obs_value) VALUES
  ('CC[C@@H](C)[C@H]1NC(=O)[C@H](CCCNC(=N)N)NC(=O)[C@@H](CCCNC(=N)N)NC(=O)[C@H](NC(=O)[C@@H](Cc2ccccc2)NC(=O)CNC(=O)CNC(=O)[C@H](N)Cc2ccc(O)cc2)CCCCNC(=O)C[C@@H](C(=O)N2CCC[C@H]2C(=O)N[C@H](CCCCN)C(N)=O)NC1=O', 'pIC50', 8.18),
  ('CC[C@H](C)[C@H](NC(=O)[C@H](CCCCN)NC(=O)[C@H](CCCNC(=N)N)NC(=O)[C@H](CC(C)C)NC(=O)[C@H](Cc1ccccc1)NC(=O)[C@H](CC(=O)O)NC(=O)CNC(=O)[C@@H](N)Cc1ccc(O)cc1)C(=O)N[C@@H](CCCNC(=N)N)C(=O)N1CCC[C@H]1C(=O)N[C@@H](CCCCN)C(N)=O', 'pIC50', 6.72),
  ('CC[C@H](C)[C@H](NC(=O)[C@H](CCCCN)NC(=O)[C@H](CCCNC(=N)N)NC(=O)[C@H](CC(C)C)NC(=O)[C@H](Cc1ccccc1)NC(=O)[C@@H](CC(=O)O)NC(=O)CNC(=O)[C@@H](N)Cc1ccc(O)cc1)C(=O)N[C@@H](CCCNC(=N)N)C(=O)N1CCC[C@H]1C(=O)N[C@@H](CCCCN)C(N)=O', 'pIC50', 7.33);

----------
Recorded pIC50 values for a group of compounds are listed next.
system: Kappa-type opioid receptor (Cavia porcellus)
method summary: Inhibition of [3H]U-69593 binding to Opioid receptor kappa 1 of plasma membrane homogenates of guinea pig brain
pIC50: −log10 of the molar value.
measured parameter: pIC50

INSERT INTO results (substance_smiles, system, measured_parameter, obs_value) VALUES
  ('CC[C@H](C)[C@H](NC(=O)[C@H]1CCCCNC(=O)C[C@H](NC(=O)CNC(=O)[C@@H](N)Cc2ccc(O)cc2)C(=O)N[C@H](Cc2ccccc2)C(=O)N[C@@H](CC(C)C)C(=O)N[C@H](CCCN=C(N)N)C(=O)N1)C(=O)N[C@@H](CCCN=C(N)N)C(=O)N1CCC[C@@H]1C(=O)N[C@H](CCCCN)C(N)=O', 'Kappa-type opioid receptor (Cavia porcellus)', 'pIC50', 8.31),
  ('CC[C@@H](C)[C@H]1NC(=O)[C@H](CCCN=C(N)N)NC(=O)[C@@H](CCCN=C(N)N)NC(=O)[C@H](NC(=O)[C@@H](Cc2ccccc2)NC(=O)CNC(=O)CNC(=O)[C@H](N)Cc2ccc(O)cc2)CCCCNC(=O)C[C@H](C(=O)N2CCC[C@H]2C(=O)N[C@H](CCCCN)C(N)=O)NC1=O', 'Kappa-type opioid receptor (Cavia porcellus)', 'pIC50', 7.00),
  ('CC[C@H](C)[C@H](NC(=O)[C@H](CCCNC(=N)N)NC(=O)[C@@H]1CCCCNC(=O)C[C@H](NC(=O)[C@@H](N)Cc2ccc(O)cc2)C(=O)NCC(=O)N[C@@H](Cc2ccccc2)C(=O)N[C@@H](CC(C)C)C(=O)N1)C(=O)N[C@@H](CCCNC(=N)N)C(=O)N1CCC[C@H]1C(=O)N[C@@H](CCCCN)C(N)=O', 'Kappa-type opioid receptor (Cavia porcellus)', 'pIC50', 6.96),
  ('CC[C@H](C)[C@H](NC(=O)[C@H](CCCN=C(N)N)NC(=O)[C@H](CCCN=C(N)N)NC(=O)[C@H](CCCCN)NC(=O)[C@H](Cc1ccccc1)NC(=O)CNC(=O)CNC(=O)[C@@H](N)Cc1ccc(O)cc1)C(=O)N[C@@H](CC(=O)O)C(=O)N1CCC[C@H]1C(=O)N[C@@H](CCCCN)C(N)=O', 'Kappa-type opioid receptor (Cavia porcellus)', 'pIC50', 7.46),
  ('CC[C@H](C)[C@H](NC(=O)[C@H]1CCCCNC(=O)C[C@@H](NC(=O)CNC(=O)[C@@H](N)Cc2ccc(O)cc2)C(=O)N[C@H](Cc2ccccc2)C(=O)N[C@@H](CC(C)C)C(=O)N[C@H](CCCN=C(N)N)C(=O)N1)C(=O)N[C@@H](CCCN=C(N)N)C(=O)N1CCC[C@@H]1C(=O)N[C@H](CCCCN)C(N)=O', 'Kappa-type opioid receptor (Cavia porcellus)', 'pIC50', 7.60),
  ('CC[C@H](C)[C@H](NC(=O)[C@H](CCCNC(=N)N)NC(=O)[C@H](CCCNC(=N)N)NC(=O)[C@H](CCCCN)NC(=O)[C@H](Cc1ccccc1)NC(=O)CNC(=O)CNC(=O)[C@@H](N)Cc1ccc(O)cc1)C(=O)N[C@H](CC(=O)O)C(=O)N1CCC[C@H]1C(=O)N[C@@H](CCCCN)C(N)=O', 'Kappa-type opioid receptor (Cavia porcellus)', 'pIC50', 7.76),
  ('CC[C@H](C)[C@H](NC(=O)[C@H](CCCNC(=N)N)NC(=O)[C@H](CCCCN)NC(=O)[C@H](CC(C)C)NC(=O)[C@H](Cc1ccccc1)NC(=O)CNC(=O)[C@H](CC(=O)O)NC(=O)[C@@H](N)Cc1ccc(O)cc1)C(=O)N[C@@H](CCCNC(=N)N)C(=O)N1CCC[C@H]1C(=O)N[C@@H](CCCCN)C(N)=O', 'Kappa-type opioid receptor (Cavia porcellus)', 'pIC50', 8.82),
  ('CC[C@H](C)[C@H](NC(=O)[C@H](CCCNC(=N)N)NC(=O)[C@@H]1CCCCNC(=O)C[C@@H](NC(=O)[C@@H](N)Cc2ccc(O)cc2)C(=O)NCC(=O)N[C@@H](Cc2ccccc2)C(=O)N[C@@H](CC(C)C)C(=O)N1)C(=O)N[C@@H](CCCNC(=N)N)C(=O)N1CCC[C@H]1C(=O)N[C@@H](CCCCN)C(N)=O', 'Kappa-type opioid receptor (Cavia porcellus)', 'pIC50', 7.00);

----------
method summary: Relative binding to delta and kappa opioid receptors (ratio of IC50)
Recorded Selectivity values for a group of compounds are listed next.
measured parameter: Selectivity (Ratio)

INSERT INTO assay_data (substance_smiles, measured_parameter, result_unit, obs_value) VALUES
  ('CC[C@H](C)[C@H](NC(=O)[C@H](CCCN=C(N)N)NC(=O)[C@@H]1CCCCNC(=O)C[C@@H](NC(=O)[C@@H](N)Cc2ccc(O)cc2)C(=O)NCC(=O)N[C@H](Cc2ccccc2)C(=O)N[C@@H](CC(C)C)C(=O)N1)C(=O)N[C@@H](CCCN=C(N)N)C(=O)N1CCC[C@@H]1C(=O)N[C@H](CCCCN)C(N)=O', 'Selectivity', 'Ratio', 9.1),
  ('CC[C@H](C)[C@H](NC(=O)[C@H](CCCCN)NC(=O)[C@H](CCCN=C(N)N)NC(=O)[C@H](CC(C)C)NC(=O)[C@H](Cc1ccccc1)NC(=O)[C@@H](CC(=O)O)NC(=O)CNC(=O)[C@@H](N)Cc1ccc(O)cc1)C(=O)N[C@@H](CCCN=C(N)N)C(=O)N1CCC[C@@H]1C(=O)N[C@H](CCCCN)C(N)=O', 'Selectivity', 'Ratio', 19),
  ('CC[C@H](C)[C@H](NC(=O)[C@H](CCCCN)NC(=O)[C@H](CCCN=C(N)N)NC(=O)[C@H](CC(C)C)NC(=O)[C@H](Cc1ccccc1)NC(=O)[C@H](CC(=O)O)NC(=O)CNC(=O)[C@@H](N)Cc1ccc(O)cc1)C(=O)N[C@@H](CCCN=C(N)N)C(=O)N1CCC[C@@H]1C(=O)N[C@H](CCCCN)C(N)=O', 'Selectivity', 'Ratio', 9.5),
  ('CC[C@H](C)[C@H](NC(=O)[C@H](CCCN=C(N)N)NC(=O)[C@@H]1CCCCNC(=O)C[C@H](NC(=O)[C@@H](N)Cc2ccc(O)cc2)C(=O)NCC(=O)N[C@H](Cc2ccccc2)C(=O)N[C@@H](CC(C)C)C(=O)N1)C(=O)N[C@@H](CCCN=C(N)N)C(=O)N1CCC[C@@H]1C(=O)N[C@H](CCCCN)C(N)=O', 'Selectivity', 'Ratio', 0.11);
